Numbers sourced from PubChem BioAssay (NCI).

Field: TGI. Provide a value for each of the molecules that follow.
# Tested on: DU-145 prostate
# assay-details: NCI tumour cell line growth inhibition, 48 h

Before answering, review these 5 worked examples.
{"smiles-text": "CO[C@@H]1[C@H](O)CC[C@]2(CO2)[C@H]1[C@@]1(C)O[C@@H]1CC=C(C)C", "subject-of-test": "DU-145 prostate", "TGI": "> 200 µM"}
{"smiles-text": "COc1cc2c3c(n(CCCNCCCNCCCn4c5c(c6cc(OC)c(OC)cc6c4=O)C(=O)c4ccccc4-5)c(=O)c2cc1OC)-c1ccccc1C3=O", "subject-of-test": "DU-145 prostate", "TGI": "> 100 µM"}
{"smiles-text": "CC(=O)Oc1cc2c[n+](C)c3c4cc(OC(C)=O)c(OC(C)=O)cc4ccc3c2cc1OC(C)=O", "subject-of-test": "DU-145 prostate", "TGI": "> 100 µM"}
{"smiles-text": "CCCCCCCCCCCCCCNc1nc(C(=O)OCC)ncc1-c1ccc(C(F)(F)F)cc1", "subject-of-test": "DU-145 prostate", "TGI": "> 100 µM"}
{"smiles-text": "CCOC(=O)C(C)(C)Oc1ccc(Cl)cc1", "subject-of-test": "DU-145 prostate", "TGI": "> 1000 µM"}

Kindly review the next molecule as well.
Reported TGI of "O=[N+]([O-])c1ccc(/C(=C\c2ccccc2)Cn2ccnc2)cc1" : > 100 µM

###

Field: TGI. Provide a value for each of the compounds that follow.
# System: RXF 393 renal
# assay-details: NCI tumour cell line growth inhibition, 48 h

Before answering, review these 2 worked examples.
{"compound": "C=CCN1C(=O)C(=O)N(CC=C)C(=O)C1=O", "subject-of-test": "RXF 393 renal", "reported-value": "> 100 µM"}
{"compound": "CC(Cc1ccc(O)cc1)NCC(O)c1ccc(O)c(O)c1 (stereo not drawn)", "subject-of-test": "RXF 393 renal", "reported-value": "> 100 µM"}

Kindly review the next compound as well.
Reported TGI of "Clc1ccc(Cl)c(N=Nc2cc3c4c(c2)CCCN4CCC3)c1" : > 10 µM

###

# System: LOX IMVI melanoma
# assay-details: NCI tumour cell line growth inhibition, 48 h
measurement-name: TGI

{"molecule": "COc1ccc(O)cc1C=O", "reported-value": "> 100 µM"}
{"molecule": "Cc1c(-c2ccc(O)c(O)c2)oc(=O)c2c(O)cc(O)cc12", "reported-value": "> 100 µM"}
{"molecule": "CCOC(=O)[C@@]12C(C)=CC(=O)O[C@]1(C)C[C@H]2C#N", "reported-value": "> 100 µM"}
{"molecule": "NC(Cc1ccc(OCc2ccccc2)cn1)C(=O)OCc1ccccc1 (configuration not stated)", "reported-value": "> 100 µM"}
{"molecule": "CC(C)(C)OC(=O)CCC1NC(=O)[C@@H]2Cc3c([nH]c4ccccc34)C(C3CCCCC3)N2C1=O (some centres not stated)", "reported-value": "> 100 µM"}

Here are 5 molecules. What values of TGI were reported for them?
1. COc1nc(SC)nc2c1C(O)n1c(nc3ccccc31)S2 (configuration not stated)
2. COC(=O)[C@@H](NC1(c2ccccc2)c2ccccc2-c2ccccc21)[C@H](OC(=O)[C@H]1CCCN1S(=O)(=O)c1ccccc1)C(=O)OC
3. COc1ccc(C(=O)NCCNc2nccc(-c3c(-c4ccc(F)cc4)nc4sccn34)n2)cc1
4. Cc1ccc(NC(=O)CSc2nnc(Cc3ccccc3)o2)c(C)c1
5. c1ccc2c(c1)Sc1ccccc1N2CC1CN2CCC1CC2 (configuration not stated)

["> 100 µM", "> 100 µM", "> 100 µM", "> 100 µM", "11.5 µM"]

Here are 8 molecules. What values of TGI were reported for them?
1. O=C1C=Cc2c(-c3ccccc3)oc3cccc1c23
2. O=C(Cc1nc2cccnc2nc1/C=C(\O)c1ccccc1)c1ccccc1
3. CC#C[C@@]1(O)CCCCC1O (some centres not stated)
4. CCCCCCCCCC1CC(=O)Oc2cccc(O)c21 (configuration not stated)
5. COc1cc(C2CC(C)(N3CCCC3)Oc3cc4c(cc32)OCO4)cc(OC)c1OC (configuration not stated)
6. COC(=O)c1c(C(=O)OC)c2ccc(-c3ccc(Cl)cc3)nn2c1C(=O)c1ccc([N+](=O)[O-])cc1
7. Cc1c(CN)c(C)c(CN)c(C)c1CN
8. COC(=O)N1c2ccc3c(nc(Cc4ccccc4)n3[C@H]3CCC[C@H](C(=O)O)C3)c2CC[C@@H]1C

["> 52.7 µM", "87 µM", "> 100 µM", "35.6 µM", "15 µM", "> 100 µM", "> 100 µM", "30.2 µM"]
